Protocol text: forskolin-driven CRE-LacZ activity in PC12 – cell-based, CRE-LacZ reporter, forskolin-stimulated, primary screen (AID 1146);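 note: PC12 cells with 6xCRE LacZ reporter stimulated by forskolin 10 µM; beta-galactosidase reporter signal reflecting CREB driven transcription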
Settings: luminescence, 4.5 h, higher = more signal, called active from +8 up or from −8 down
So basically: z-score at 0.2 or higher? That is fulfilled. Lower than 0.2? That is not fulfilled.

Compound | Class label
O=C(NC1CC1)[C@@H]1c2ccccc2C(=O)N(Cc2cc(F)cc(C(F)(F)F)c2)[C@H]1c1ccc(CO)cc1 | not fulfilled
OCC1C=C(/C=C/c2ccccc2)CN1Cc1ccccc1Br (configuration not stated) | not fulfilled
CCOC(=O)C[C@H]1[C@H](OC(=O)c2cc3ccccc3oc2=O)[C@@H](NC(=O)CC(C)C)c2cc(OCCCO)ccc2N1C(=O)c1ccccc1 | not fulfilled
C=CCC(OC(C)=O)[C@@H]1[C@@H](N(Cc2cc3ccccc3o2)C(=O)Cc2ccc(OC)cc2)c2cc(OCCCO)ccc2N1C(=O)c1ccc2ccccc2c1 (some centres not stated) | fulfilled
NC(=O)NCC#Cc1ccc2c(c1)[C@]1(C(=O)N2)[C@H](C(=O)O)[C@H]2C(=O)O[C@H](c3ccccc3)[C@H](c3ccccc3)N2[C@@H]1c1ccc(O)cc1 | not fulfilled

Turning now to a further compound:
Challenge: Quick check: does CCOC(=O)C1=CC[C@H]2C(=O)N(c3ccccc3)C(=O)[C@@H]12 have z-score greater than or equal to 0.2?
Response given: not fulfilled

====

Tested on: XIP peptide (Xip251-270) binding
Protocol text: XIP fragment 251-270 binding compounds – biochemical, small-molecule microarray, fluorescence 635/667 nm, 0.1 µg/mL protein, primary screen (AID 1182)
Settings: fluorescent protein binding, 635 nm, higher = more signal, called active from +8 up or from −8 down
Activity calls are given as the source filed them.
Property measured: composite z-score

Compound | Reported
OB1C=CCC(CCc2ccccc2)O1 (configuration not stated) | -1.15 (inactive)
[N-]=[N+]=Nc1ccccc1[C@H]1OC(c2ccc(OCCCO)cc2)=N[C@@]1(CCS(=O)(=O)c1ccccc1)C(=O)NCc1ccccc1 | 0.273 (inactive)
COc1ccc(C(O)C2C=CC3C(=O)N(C)C(=O)C3N2N(c2ccccc2)c2ccccc2)c2ccccc12 (configuration not stated) | 0.742 (inactive)
COCCOC(=O)N1C(=O)[C@@]2(c3ccccc31)[C@H](C(=O)N1CCCCCCC1)[C@H]1C(=O)O[C@H](c3ccccc3)[C@H](c3ccccc3)N1[C@@H]2c1ccc(OCCO)cc1 | 6.55 (inactive)
O=C1C2C=CC(C(O)c3ccc4c(c3)OCO4)N(Nc3ccc([N+](=O)[O-])cc3)C2C(=O)N1c1ccccc1 (configuration not stated) | -0.164 (inactive)
O=C1[C@H]2C=C(Br)[C@H](C[C@@H]2OCCCCCCO)[C@@]12CO2 | -0.358 (inactive)

Challenge: Tell me the measured composite z-score of C#CCNCc1ccccc1 , please.
Response given: -0.609 (inactive)

Challenge: Give the measured composite z-score of C[N+](C)(C)CCCCCCNC(=O)[C@H]1C[C@H]2C(=O)N[C@@H](Cc3ccccc3)C(=O)N2[C@H]1c1cccc(OCCO)c1 .
Response given: 0.875 (inactive)

Challenge: Param item = O=C1OCCC=C[C@H]2OC34C=CCN(Cn5nnc6ccccc65)C(=O)[C@H]3N(CCO)C(=O)[C@@H]4C12 (some centres not stated) ; retrieve measured composite z-score.
Response given: -0.681 (inactive)

Challenge: Record request: composite z-score value, item O=C1C2C=CC(C(O)c3ccc(F)cc3)N(Nc3ccc([N+](=O)[O-])cc3)C2C(=O)N1c1ccccc1 (configuration not stated)
Response given: 0.224 (inactive)

Challenge: Quick one: composite z-score for O=C1[C@@]23C=C(Br)[C@H](C[C@@H]2COC3)[C@]12CO2 ?
Response given: -0.0125 (inactive)

Challenge: Could you tell me which composite z-score is on file for COc1cc2c(cc1OC)CN(C(=O)[C@H]1[C@@H]3C(=O)O[C@@H](c4ccccc4)[C@@H](c4ccccc4)N3[C@@H](c3ccccc3OCCO)[C@]13C(=O)Nc1ccc(C#CCCO)cc13)CC2 ?
Response given: 0.138 (inactive)

Challenge: Quick check: composite z-score of O=C1O[C@H](c2ccccc2)[C@H](c2ccccc2)N2[C@H]1[C@@H](C(=O)N1CCN(c3ncccn3)CC1)[C@]1(C(=O)Nc3ccc(C#CC4=CCCCC4)cc31)[C@H]2c1ccccc1OCCO ?
Response given: 0.263 (inactive)
